The origin of these recorded values is patent US12042530B2.

Measured Copies/cell class, CLL2, listed per entry for reference.
target: HLA-A*0201 (HLA-A2) peptide complexes (Homo sapiens, UniProt P04439, D140Y/D185E/D98H/E176V/E277Q/G131W/G231S/I119V/I121R/I166T/I218V/L300P/L318F/N151K/N90K/P208A/P217A/Q86G/Q94H/R138H/R169H/T345S); construct: endogenous in cells; host or cells: JY B-lymphoblastoid line; primary CLL, MCL, AML, ALL samples; healthy splenic T and B cells; experiment: HLA-A*0201 phosphopeptides associated with leukemia samples (isolation of HLA-associated peptides); settings: CLL2
Please state the value as a number alone, without comment.

456 (RQLSSGVSEI; SITE (1)..(10): One or more of the listed amino acids can be phosphorylated as set forth in the Tables; listed as Homo sapiens) [compound 456] = 0

Shift focus to the following entry.
Please list Copies/cell class, CLL2 recorded for the substance 460 (SMTRSPPRV; SITE (1)..(9): One or more of the listed amino acids can be phosphorylated as set forth in the Tables; listed as Homo sapiens) [compound 460]
0

----------
target: HLA-A*0201 (HLA-A2) peptide complexes (Homo sapiens, UniProt P04439, D140Y/D185E/D98H/E176V/E277Q/G131W/G231S/I119V/I121R/I166T/I218V/L300P/L318F/N151K/N90K/P208A/P217A/Q86G/Q94H/R138H/R169H/T345S); construct: endogenous in cells; host or cells: JY B-lymphoblastoid line; primary CLL, MCL, AML, ALL samples; healthy splenic T and B cells; experiment: HLA-A*0201 phosphopeptides associated with leukemia samples (isolation of HLA-associated peptides); settings: healthy B cells
Measured Copies/cell class, B Cell, listed per entry for reference.
Please state the value as a number alone, without comment.

Past entries and their recorded results:
444 (KMDSFLDMQL; SITE (1)..(10): One or more of the listed amino acids can be phosphorylated as set forth in the Tables; listed as Homo sapiens) [compound 444] = 0
456 (RQLSSGVSEI; SITE (1)..(10): One or more of the listed amino acids can be phosphorylated as set forth in the Tables; listed as Homo sapiens) [compound 456] = 0

Please list Copies/cell class, B Cell recorded for the substance 460 (SMTRSPPRV; SITE (1)..(9): One or more of the listed amino acids can be phosphorylated as set forth in the Tables; listed as Homo sapiens) [compound 460]
0

----------
molecular target: HLA-A*0201 (HLA-A2) peptide complexes (Homo sapiens, UniProt P04439, D140Y/D185E/D98H/E176V/E277Q/G131W/G231S/I119V/I121R/I166T/I218V/L300P/L318F/N151K/N90K/P208A/P217A/Q86G/Q94H/R138H/R169H/T345S); construct: endogenous in cells; host or cells: JY B-lymphoblastoid line; primary CLL, MCL, AML, ALL samples; healthy splenic T and B cells; assay: HLA-A*0201 phosphopeptides associated with leukemia samples (isolation of HLA-associated peptides); settings: EBV transformed B lymphoblastoid cell line JY
measured_property: Copies/cell class, JY
Please state the value as a number alone, without comment.

460 (SMTRSPPRV; SITE (1)..(9): One or more of the listed amino acids can be phosphorylated as set forth in the Tables; listed as Homo sapiens) [compound 460] = 0

Shift focus to the following entry.
Please list Copies/cell class, JY recorded for the substance 457 (RTFSPTYGL; SITE (1)..(9): One or more of the listed amino acids can be phosphorylated as set forth in the Tables; listed as Homo sapiens) [compound 457]
0
